# Test summary: NCI Yeast Anticancer Drug Screen. Data for the sgs1 mgt1 strain (AID 161);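 also: 0% = growth of cultures given vehicle only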
# Condition context: S. cerevisiae sgs1 mgt1 strain, at 50.0 µM, active compounds read high
# Description: Growth inhibition of yeast strains with defined genetic alterations is measured as a screen for potential anti-cancer activity. Selected strains with alterations in DNA damage repair or cell cycle control were exposed to compounds and growth inhibition was measured relative to vehicle treated controls. The strain used in this assay is sgs1 mgt1
Compounds without any hit were thinned out: in the full panel of roughly 79,000, 15% have a hit.
Note that class boundaries on growth inhibition are zone 1 (below 60%), zone 2 (60% to below 90%), zone 3 (90% or more)

Request: Into which category would you place COC/C=N/Nc1ccc([N+](=O)[O-])cc1 ?
Result: zone 3

Request: Into which category would you place Cc1ccc(S(=O)(=O)NC(=O)CC2CCCCC2)cc1 ?
Result: zone 2

Request: Into which category would you place O=C1Nc2ccccc2/C1=C/c1ccc(Cl)c(Cl)c1 ?
Result: zone 2

Request: Into which category would you place FC(F)(F)C(C1=NC(C(F)(F)F)(C(F)(F)F)N=C(N2CCOCC2)O1)C(F)(F)F ?
Result: zone 1

Request: Into which category would you place Nc1nnc(-c2cc([N+](=O)[O-])cc([N+](=O)[O-])c2)o1 ?
Result: zone 1

Request: Into which category would you place CCCCCCCCCCCCCCCCCO ?
Result: zone 1

Request: Into which category would you place C1CCC(OC2CCCCO2)OC1 (centres undefined) ?
Result: zone 2

Request: Into which category would you place O.O.O=C(O)C(O)C(O)C(OC1OC(CO)C(O)C(O)C1O)C(O)CO.O=C(O)C(O)C(O)C(OC1OC(CO)C(O)C(O)C1O)C(O)CO.[NH-]C1CCCCC1[NH-].[Pt+2] (centres undefined) ?
Result: zone 3

Request: Into which category would you place O=C(/C=C\c1cc(Br)ccc1O)/C=C/c1cc(Br)ccc1O ?
Result: zone 2

Request: Into which category would you place CC(=O)Oc1c(Cl)cc(Cl)cc1C(c1cc(Cl)cc(Cl)c1OC(C)=O)C(Cl)(Cl)Cl ?
Result: zone 2

Request: Into which category would you place CC1=C(C(=O)Nc2ccccc2C)C(c2ccc(Cl)c(Cl)c2)C(C(=O)Nc2ccccc2C)=C(C)N1 ?
Result: zone 2

Request: Into which category would you place Cc1ccc2c(c1)C1(C)C=C(CN3CCN(C)CC3)C(=O)CC1O2 (centres undefined) ?
Result: zone 3

Request: Into which category would you place CCc1c(Nc2ccccc2C)[nH]c(N)nc1=S ?
Result: zone 1

Request: Into which category would you place Cc1c[n+](=O)c2ccccc2n1[O-] ?
Result: zone 1

Request: Into which category would you place O=C1CCC(=O)c2c1c(O)c1ccncc1c2O ?
Result: zone 3

Request: Into which category would you place CC(=O)Nc1ccc(-c2cnc3ccccc3c2)cc1 ?
Result: zone 1

Request: Into which category would you place Nc1nc(N)c2cc(S(=O)c3ccc4ccccc4c3)ccc2n1 (centres undefined) ?
Result: zone 1

Request: Into which category would you place Cc1ccnc2c1ccc1c(C)ccnc12 ?
Result: zone 3

Request: Into which category would you place CC(=O)c1cc(-c2ccccc2)nc2ccccc12 ?
Result: zone 3

Request: Into which category would you place O=C1c2ccccc2C(O)(C#Cc2ccccc2)c2cnccc21 (centres undefined) ?
Result: zone 3

====

# Test summary: NCI Yeast Anticancer Drug Screen. Data for the cln2 rad14 strain (AID 165);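 also: 0% = growth equal to vehicle treated cultures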
# Condition context: S. cerevisiae cln2 rad14 strain, at 50.0 µM (retest, dose inferred, filed as 5.0), active compounds read high
This is part of a sample that, as a whole, favours compounds with a hit. Of some 79,000 tested, about 15% had one in any assay. Active and inactive are the calls of the source. No stated cut-off is given here; in the data, active means growth inhibition above about 70%; inactive means the rest.
Attribute measured: growth inhibition

Request: For the molecule CCN(CC)CCOC(=O)CCN1CC2CCC(CC2)C1 , report growth inhibition.
Result: 3% (inactive)

Request: For the molecule CC(C(O)c1ccccc1)C(O)(C(F)(F)F)C(F)(F)F (configuration not stated) , report growth inhibition.
Result: -4% (inactive)

Request: For the molecule CC(=O)Nc1ccc2c(c1)C(=O)c1cccc(F)c1-2 , report growth inhibition.
Result: 38% (inactive)

Request: For the molecule O=C1NC(=O)/C(=C/C=C/c2ccccc2)S1 , report growth inhibition.
Result: 63% (inactive)

Request: For the molecule C=CCNC(=O)NC1=CSC2=NC(=O)C3(NN12)c1ccccc1-c1ccccc13 , report growth inhibition.
Result: 83% (active)

Request: For the molecule CCOCCC(=O)NNc1ccccc1 , report growth inhibition.
Result: 56% (inactive)

Request: For the molecule N#C/C(=C\c1c(Cl)cccc1Cl)c1ccccc1 , report growth inhibition.
Result: 35% (inactive)

Request: For the molecule Cc1ccc(I)c(C(C)(C)O)c1 , report growth inhibition.
Result: 30% (inactive)

Request: For the molecule COc1ccc(CN=C(N)N)c2ccccc12 , report growth inhibition.
Result: 31% (inactive)

Request: For the molecule Nc1nc2nc(I)[nH]c2c(=O)[nH]1 , report growth inhibition.
Result: -4% (inactive)

Request: For the molecule CCN(CC)CC(C)(C)C(=O)/C=C/c1ccc(Cl)c(Cl)c1 , report growth inhibition.
Result: 97% (active)

Request: For the molecule N#Cc1c(Cl)nc2ccccc2c1N=[N+]=[N-] , report growth inhibition.
Result: 8% (inactive)

Request: For the molecule COC1/C=C/OC2(C)Oc3c(C)c(O)c4c(c3C2=O)C(=O)C=C(NC(=O)/C(C)=C\C=C\C(C)C(OC=O)C(C)C(O)C(C)C(OC(C)=O)C1C)C4=O (configuration not stated) , report growth inhibition.
Result: 3% (inactive)

Request: For the molecule N#CSc1cc(SC#N)c2ccccc2c1N , report growth inhibition.
Result: -27% (inactive)

Request: For the molecule O=S(=O)(O)c1cc(N=Nc2ccc(O)c(O)c2)ccc1/C=C/c1ccc(N=Nc2ccc(O)c(O)c2)cc1S(=O)(=O)O , report growth inhibition.
Result: 31% (inactive)

Request: For the molecule CC(=O)[O-].CC(=O)[O-].CC(=O)[O-].CC(=O)[O-].Cn1c(=O)c2[nH]cnc2n(C)c1=O.Cn1c(=O)c2[nH]cnc2n(C)c1=O.[Rh+2].[Rh+2] , report growth inhibition.
Result: 9% (inactive)

Request: For the molecule Cn1c(C(C)(C)OC(=O)Oc2ccccc2)cnc1[N+](=O)[O-] , report growth inhibition.
Result: 31% (inactive)

Request: For the molecule C=C1C[C@@]2(OC)OCC[C@H]3C(C)=CCC(C1=O)[C@]32C(=O)OC (some centres not stated) , report growth inhibition.
Result: 93% (active)

Request: For the molecule CC1=C(C(=O)Nc2ccccc2)C(c2ccccc2F)C(C(=O)Nc2ccccc2)=C(C)N1 , report growth inhibition.
Result: 37% (inactive)

Request: For the molecule N=C(N)c1ccc2oc3ccc(C(=N)N)cc3c(=O)c2c1 , report growth inhibition.
Result: 65% (inactive)

Request: For the molecule OC(Cc1ccccc1)(c1ccccc1)C(O)(Cc1ccccc1)c1ccccc1 (configuration not stated) , report growth inhibition.
Result: 53% (inactive)

Request: For the molecule Cc1ccc(C2SCc3nc4ccccc4n32)cc1 (configuration not stated) , report growth inhibition.
Result: 46% (inactive)

Request: For the molecule COC1(CO)C(=O)N(C)CC(=O)N1C (configuration not stated) , report growth inhibition.
Result: 20% (inactive)

Request: For the molecule c1ccc2c(c1)[nH]c1cc3ccncc3cc12 , report growth inhibition.
Result: 42% (inactive)

Request: For the molecule O=C1CCSC(=S)N1c1ccc(N=Nc2ccccc2)cc1 , report growth inhibition.
Result: 13% (inactive)

Request: For the molecule CCCCCCCCCC(=O)NN=C(C)C , report growth inhibition.
Result: 81% (active)

Request: For the molecule C[C@@]12C(=O)OC(=O)[C@]1(C)[C@H]1CC[C@@H]2O1 , report growth inhibition.
Result: 98% (active)

Request: For the molecule CC(=O)OCC1(O)OCC(OC(C)=O)C(OC(C)=O)C1OC(C)=O (configuration not stated) , report growth inhibition.
Result: -36% (inactive)

Request: For the molecule CCOC(=O)C[n+]1c(C)cc(-c2ccccc2)cc1C , report growth inhibition.
Result: 2% (inactive)

Request: For the molecule O=C(Cl)c1cc(-c2ccc(Cl)cc2)nc2c(Cl)cccc12 , report growth inhibition.
Result: 99% (active)

Request: For the molecule CC1C(c2ccc3c(c2)OCO3)c2cc3c(cc2OC1N1CCOCC1)OCO3 (configuration not stated) , report growth inhibition.
Result: 27% (inactive)

Request: For the molecule CN(C)CCNc1ccc(O)c2sc3ccccc3c(=O)c12 , report growth inhibition.
Result: 19% (inactive)

Request: For the molecule CCCCSc1n[nH]c(=O)nc1SC , report growth inhibition.
Result: 90% (active)

Request: For the molecule CN(C)c1ccc2c(c1)Cc1cc(NC(=O)/C=C/C(=O)O)ccc1-2 , report growth inhibition.
Result: 6% (inactive)

Request: For the molecule CCOC(=O)CNC(=O)Sc1ccc(C(C)(C)C)cc1C , report growth inhibition.
Result: 84% (active)

Request: For the molecule Nc1ccc(/C=C/c2ccccc2)cc1 , report growth inhibition.
Result: 45% (inactive)

Request: For the molecule CCN(CC)CCNc1nc(N)c2nc(-c3ccccc3)c(-c3ccccc3)nc2n1 , report growth inhibition.
Result: 5% (inactive)

Request: For the molecule CC(/C=C/c1cccs1)=N\C(=S)NC(N)=S , report growth inhibition.
Result: -4% (inactive)

Request: For the molecule CCCCCCCCCCCCCCCCCO , report growth inhibition.
Result: -5% (inactive)

Request: For the molecule CN(C)CCSc1cc(-c2ccccc2)c2ccccc2n1 , report growth inhibition.
Result: 94% (active)

Request: For the molecule Oc1c(Br)c(Br)c(O)c(Br)c1Br , report growth inhibition.
Result: 13% (inactive)

Request: For the molecule CC1=C(/C=C/C(C)=N/NC(N)=S)C(C)(C)CCC1 , report growth inhibition.
Result: 85% (active)

Request: For the molecule O=C1C2(Cl)C(Cl)=C(Cl)C1(Cl)C1(Cl)C(Cl)=C(Cl)C(=O)C21Cl (configuration not stated) , report growth inhibition.
Result: 89% (active)

Request: For the molecule O=C1C=CC(=O)N1C1c2ccccc2-c2ccccc21 , report growth inhibition.
Result: 99% (active)

Request: For the molecule O=C(c1ccco1)N(C(=S)N1CCN(c2ccccn2)CC1)c1ccccc1 , report growth inhibition.
Result: 53% (inactive)

Request: For the molecule O=C(O)C(c1ccc(Cl)cc1)c1ccc(Cl)cc1 , report growth inhibition.
Result: 97% (active)

Request: For the molecule CCCCCCC(C)OC(=O)/C=C/c1ccccc1 (configuration not stated) , report growth inhibition.
Result: 1% (inactive)

Data origin: PubChem BioAssay (NCI)
